B1: PhoQ; a variant is named by its letters at X, in order, P23837 (parent)
chain: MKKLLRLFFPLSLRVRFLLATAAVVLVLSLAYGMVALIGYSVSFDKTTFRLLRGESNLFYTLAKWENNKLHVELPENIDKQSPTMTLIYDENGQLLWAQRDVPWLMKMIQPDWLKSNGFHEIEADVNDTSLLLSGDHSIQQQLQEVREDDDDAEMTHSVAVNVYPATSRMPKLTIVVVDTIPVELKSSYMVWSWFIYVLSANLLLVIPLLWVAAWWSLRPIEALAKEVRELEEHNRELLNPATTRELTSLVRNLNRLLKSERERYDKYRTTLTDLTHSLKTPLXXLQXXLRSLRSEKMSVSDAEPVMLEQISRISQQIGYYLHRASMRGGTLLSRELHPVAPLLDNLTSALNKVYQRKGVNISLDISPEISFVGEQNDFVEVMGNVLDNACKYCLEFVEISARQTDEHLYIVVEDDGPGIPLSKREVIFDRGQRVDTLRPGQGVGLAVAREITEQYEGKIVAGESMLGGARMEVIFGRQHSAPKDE

variants of: B1; assay: enrichment ratio after two sorts for PhoP signalling (ratio (wild type AVST 3.29)); higher = more functional; conditions: with PhoP (E. coli)
Over roughly 140,000 sequences, “enrichment ratio after two sorts for PhoP signalling” has its median near 0; the highest 2% begin near 11. This excerpt belongs to a sample that is enriched for the highest values.
I'd appreciate it if you could supply enrichment ratio values for the items below.

AEGG	≤ 0.25
LTQQ	≤ 0.25
AEEG	≤ 0.25

Fill in enrichment ratio for each of the 7 variants listed.
1. AEHG
2. NGVW
3. AEMG
4. FCCR
5. AEMT
6. ADYG
7. AEMF

1: ≤ 0.25; 2: ≤ 0.25; 3: 14.3; 4: ≤ 0.25; 5: 5.41; 6: ≤ 0.25; 7: ≤ 0.25

Which enrichment ratio value belongs to `LCHM` ?
≤ 0.25
